# Substrate: O=[N+]([O-])c1ccc(OP(=O)(O)O)cc1
# assayDetails: chromogenic phosphatase assay, A400
# Format: biochemical, Thermosynechococcus vestitus
# recordedConditions: 50 mM Tris-HCl pH 8.3, 50 mM NaCl, 1 mM DTT, 2 mM MnCl2, 30 °C, pNPP 0.1-10 mM

# protein, readoutUnit, kcat
data = [
    ("tPphA (Thermosynechococcus vestitus BP-1; R13Y) (protein) MDVAGLTDCGLIYKSNQDAFYIDEKHQRFFIVADGMGGHAGGEEASRLAVDHIRQYLETHLEDLQHDPVTLLRQAFLAANHAIVEQQRQNSARADMGTTAVVILLDEKGDRAWCAHVGDSRIYRWRKDQLQQITSDHTWIAQAVQLGSLTIEQARQHPWRHVLSQCLGREDLSQIDIQPIDLEPGDRLLLCSDGLTEELTDDVISIYLSEPNVQKAAAALVDAAKTHGGRDNVTVVVISV", "s⁻¹", 0.42),
    ("tPphA (Thermosynechococcus vestitus BP-1; R13K) (protein) MDVAGLTDCGLIKKSNQDAFYIDEKHQRFFIVADGMGGHAGGEEASRLAVDHIRQYLETHLEDLQHDPVTLLRQAFLAANHAIVEQQRQNSARADMGTTAVVILLDEKGDRAWCAHVGDSRIYRWRKDQLQQITSDHTWIAQAVQLGSLTIEQARQHPWRHVLSQCLGREDLSQIDIQPIDLEPGDRLLLCSDGLTEELTDDVISIYLSEPNVQKAAAALVDAAKTHGGRDNVTVVVISV", "s⁻¹", 1.22),
    ("tPphA (Thermosynechococcus vestitus BP-1; R13H) (protein) MDVAGLTDCGLIHKSNQDAFYIDEKHQRFFIVADGMGGHAGGEEASRLAVDHIRQYLETHLEDLQHDPVTLLRQAFLAANHAIVEQQRQNSARADMGTTAVVILLDEKGDRAWCAHVGDSRIYRWRKDQLQQITSDHTWIAQAVQLGSLTIEQARQHPWRHVLSQCLGREDLSQIDIQPIDLEPGDRLLLCSDGLTEELTDDVISIYLSEPNVQKAAAALVDAAKTHGGRDNVTVVVISV", "s⁻¹", 0.64),
]
